Molecular target: T1, extracellular domain of rhesus monkey BCMA (rhesus monkey, UniProt F7FFA0 1-53)
T1 construct: extracellular domain; also called RhBCMA
T1 sequence (F7FFA0 entry or part of it): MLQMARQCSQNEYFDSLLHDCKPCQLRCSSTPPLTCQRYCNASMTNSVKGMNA
Test: Octet BLI; Fab 200 nM
Kd reference
Give your result in nM as a bare value.

# binder, Kd, nM
data = [
    ("AB200-R1a-Fab_VH37 (Fab, V domains shown) VH: QVQLVQSGAEVKKPGSSVKVSCKASGGTFTNYWMHWVRQAPGQGLEWMGATYKGHSDTYYNQKFRGRVTITADKSTSTAYMELSSLRSEDTAVYYCARGAIYHGYDVLDNWGQGTLVTVSS VL: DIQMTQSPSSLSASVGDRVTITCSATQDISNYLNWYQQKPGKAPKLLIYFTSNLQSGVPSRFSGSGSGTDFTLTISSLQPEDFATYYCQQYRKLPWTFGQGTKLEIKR", 10.4),
    ("AB200-R1a-Fab_VH32 (Fab, V domains shown) VH: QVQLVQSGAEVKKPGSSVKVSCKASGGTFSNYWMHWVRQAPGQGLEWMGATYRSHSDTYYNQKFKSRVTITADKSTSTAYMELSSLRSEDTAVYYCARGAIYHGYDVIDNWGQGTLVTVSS VL: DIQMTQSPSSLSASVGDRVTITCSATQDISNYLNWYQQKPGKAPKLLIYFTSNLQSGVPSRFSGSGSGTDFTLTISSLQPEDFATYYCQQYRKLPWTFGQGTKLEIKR", 4.17),
]

-- ask So what does the record say about Kd for AB200-R1a-Fab_VH52 (Fab, V domains shown) VH: QVQLVQSGAEVKKPGSSVKVSCKASGGSFSDYWMHWVRQAPGQGLEWMGATYRGHSTTYYNQKFKGRVTITADKSTSTAYMELSSLRSEDTAVYYCARGAIYHGYDVLDNWGQGTLVTVSS VL: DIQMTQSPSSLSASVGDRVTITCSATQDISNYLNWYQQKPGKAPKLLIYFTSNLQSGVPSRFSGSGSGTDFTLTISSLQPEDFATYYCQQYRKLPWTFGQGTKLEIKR ?
-- reply 24.6

-- ask So what does the record say about Kd for AB200-R1a-Fab_VH20 (Fab, V domains shown) VH: QVQLVQSGAEVKKPGSSVKVSCKASGGTFSNYWMHWVRQAPGQGLEWMGATIRGHSQTYYNQKFQGRVTITADKSTSTAYMELSSLRSEDTAVYYCARGAIYHGYDVLDNWGQGTLVTVSS VL: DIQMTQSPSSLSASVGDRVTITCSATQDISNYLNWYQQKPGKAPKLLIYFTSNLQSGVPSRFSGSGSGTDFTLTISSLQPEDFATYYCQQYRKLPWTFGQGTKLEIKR ?
-- reply 15.1

-- ask So what does the record say about Kd for AB200-R1a-Fab_VH45 (Fab, V domains shown) VH: QVQLVQSGAEVKKPGSSVKVSCKASGGTFSNYWMHWVRQAPGQGLEWMGATYRGHSDTYYNNKFKGRVTITADKSTSTAYMELSSLRSEDTAVYYCARGAIYHGYDVLEDWGQGTLVTVSS VL: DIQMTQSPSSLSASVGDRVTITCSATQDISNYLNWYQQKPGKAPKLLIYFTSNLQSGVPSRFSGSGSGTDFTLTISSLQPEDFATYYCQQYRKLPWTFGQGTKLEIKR ?
-- reply 44.9
